- TESTED SYSTEM: T1, human GPRC5D protein (human, UniProt Q9NZD1 1-345)
- T1 construct: also called hGPRC5D
- T1 sequence (Q9NZD1 whole entry): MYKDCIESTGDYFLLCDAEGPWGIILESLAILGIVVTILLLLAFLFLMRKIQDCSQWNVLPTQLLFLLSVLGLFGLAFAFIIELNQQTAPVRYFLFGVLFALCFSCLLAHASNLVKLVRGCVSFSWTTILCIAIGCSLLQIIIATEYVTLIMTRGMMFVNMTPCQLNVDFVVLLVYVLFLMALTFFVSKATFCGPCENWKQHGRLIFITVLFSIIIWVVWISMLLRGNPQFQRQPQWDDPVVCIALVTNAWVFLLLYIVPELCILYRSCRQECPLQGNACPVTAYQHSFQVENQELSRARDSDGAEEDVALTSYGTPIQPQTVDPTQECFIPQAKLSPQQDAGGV
- TEST DESCRIPTION: FACS, subclone supernatant on H929 cells
# MFI values compiled below
# value in MFI; strip the unit string

Guide cases for MFI, answers given:
mouse anti-hGPRC5D antibody mu-131 (antibody, V domains shown, Tested as subcloned hybridoma culture supernatant) VH: EVQLQQSGPELVKPGASVKMSCKASGYTFTNYVMHWVKQKPGQGLEWIGYFNPYNDGTNYNEKFKGKATLTSDKSSNTAYMELSSLTSEDSAVYYCARGGVRRYFDVWGAGTTVTVSS VL: DIQMTQSPSSLSASLGERVSLTCRASQDIGSNLNWLQLGPDGTIKRLIYATFSLDSGVPKRFSGSRSGSDYSLTISSLESEDFVDYYCQQYANFPPTFGGGTKLEIK ... 12800
mouse anti-hGPRC5D antibody mu-89 (antibody, V domains shown, Tested as subcloned hybridoma culture supernatant) VH: EVQLVESGGDLVKPGGSLKLSCAASGFTFSSYGMSWVRQTPDKRLEWVATISSGGSYTYYPDSVKGRFTFSRDNAKNTLYLQMSSLKSEDTAMYYCVRQALRYHMDSWGQGTSVTVSS VL: DIVMTQSQKFMSTSVGDRVSVTCKASQNVGTNVAWYQQKPGQSPKALIYSASYRYSGVPDRFTGSGSGTDFTLTISNVQSEDLADFFCQQYYSYPWTFGGGTKLEIK ... 11900

Query string: Give me measured MFI, please, for this binder: mouse anti-hGPRC5D antibody mu-169 (antibody, V domains shown, Tested as subcloned hybridoma culture supernatant) VH: EVKLVESGGGLVKPGASLKLSCAASGFTFSNYGMSWVRQTSDKRLEWVASISSGGGRIYYPDNVKGRFTISRENAKNTLYLQMSSLKSEDTALYYCTRHAMDNWGQGTSVIVSS VL: QIVLTQSPAIMSASPGEKVTMTCSASSSVSNMYWYQQKSGTSPKRWIYDTSKLASGVPARFSGSGSGTSYSLTISSMEAEDASTYYCQQWSSNPLTFGAGTTLELK
Result string: 59300

Query string: Give me measured MFI, please, for this binder: mouse anti-hGPRC5D antibody mu-105 (antibody, V domains shown, Tested as subcloned hybridoma culture supernatant) VH: EVQLQQSGPELVKPGASVKMSCKASGYTFTDYYMNWVKQSHGKSLEWIGYIYPNNGGTGYNQRFKGKATLTADKSSSTAYMELRSLTSEDSAVYYCARWGGTRLGYYAMDYWGQGTSVTVSS VL: DIVMTQSQKFMSTSVGDRVSVTCKASQNVGTNVVWYQQKPGQSPKLLIYWASTRHTGVPDRFTGSGSGTDFTLTISNVQSEDLADYFCQQYSRYPYTFGGGTKLEIK
Result string: 13200
